TGT: human plasmin (Homo sapiens)
Sequence (P00747 581-810 limits assumed): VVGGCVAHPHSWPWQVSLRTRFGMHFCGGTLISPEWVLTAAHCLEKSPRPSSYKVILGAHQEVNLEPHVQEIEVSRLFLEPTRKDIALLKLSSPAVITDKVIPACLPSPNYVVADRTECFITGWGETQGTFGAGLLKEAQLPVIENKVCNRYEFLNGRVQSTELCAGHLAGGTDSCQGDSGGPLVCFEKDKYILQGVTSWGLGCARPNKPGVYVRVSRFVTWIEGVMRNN
Sequence (P00747 97-580 limits assumed): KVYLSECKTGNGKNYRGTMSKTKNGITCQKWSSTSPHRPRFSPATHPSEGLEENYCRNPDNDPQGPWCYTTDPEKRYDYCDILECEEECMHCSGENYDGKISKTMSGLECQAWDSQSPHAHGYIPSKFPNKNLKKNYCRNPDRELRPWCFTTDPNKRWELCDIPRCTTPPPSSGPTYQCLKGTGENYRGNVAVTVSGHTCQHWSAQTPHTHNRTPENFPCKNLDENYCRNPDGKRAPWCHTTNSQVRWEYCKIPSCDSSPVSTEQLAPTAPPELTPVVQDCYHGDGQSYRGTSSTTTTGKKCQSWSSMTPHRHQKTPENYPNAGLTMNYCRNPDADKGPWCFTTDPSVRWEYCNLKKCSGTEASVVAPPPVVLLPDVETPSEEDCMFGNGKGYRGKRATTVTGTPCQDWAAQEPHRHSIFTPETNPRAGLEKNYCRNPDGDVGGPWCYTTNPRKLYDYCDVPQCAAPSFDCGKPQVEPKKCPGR
PROCEDURE_DETAILS: Antiplasmin activity: inhibition of fibrin decomposition
Format: biochemical
CONDITION_DETAILS: Table 2, pH 7.4, 37° C., read-out: Plasmin Fibrin I50 (concentration doubling fibrin dissolution time)
Description: (i) Determination of inhibition activity for fibrin decomposition An inhibitor sample is dissolved in a 0.18 M borate-physiological salt buffer solution (pH=7.4) to make the total volume to 600 μl. […] Then, the dissolution time of the fibrin mass formed above is determined.
pIC50: −log10 of the molar value. Where a name gives a salt, the structure may show the parent alone.
Measured pIC50 accompanies every entry in the list below.

Reference set, count: 2
MOLECULE: CC(=O)c1ccc(NC(=O)C(Cc2cccc(Oc3ccccc3)c2)NC(=O)c2ccc(NC(=N)N)cc2)cc1 (stereo not drawn) [Compound 32]
RESULT: < 4.60

MOLECULE: CCOC(=O)C1CCN(C(=O)C(Cc2cccc(Oc3ccccc3)c2)NC(=O)[C@H]2CC[C@H](CN)CC2)CC1 (stereo partly drawn) [Compound 18]
RESULT: < 4.00

Now for another entry.
Q) Record COCCCNC(=O)C(Cc1cccc(Oc2ccccc2)c1)NC(=O)[C@H]1CC[C@H](CN)CC1 (mixture of isomers) [Compound 14, hydrochloride] : what is its pIC50 with human plasmin (Homo sapiens)?
A) 3.47
